# tgt: hTAS2R16 (ssr3-hTAS2R16) (Homo sapiens, UniProt Q9NYV7, I243V)
# Sequence (Q9NYV7 whole entry I243V): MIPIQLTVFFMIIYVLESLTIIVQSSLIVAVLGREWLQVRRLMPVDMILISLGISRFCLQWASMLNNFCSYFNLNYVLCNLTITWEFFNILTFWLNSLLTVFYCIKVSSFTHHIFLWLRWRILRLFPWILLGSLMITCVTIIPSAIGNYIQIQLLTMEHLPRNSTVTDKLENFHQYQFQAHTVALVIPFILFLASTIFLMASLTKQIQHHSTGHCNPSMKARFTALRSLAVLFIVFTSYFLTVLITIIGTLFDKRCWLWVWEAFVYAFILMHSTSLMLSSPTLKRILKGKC
# protocol.notes: Fluo-4 calcium assay, HEK293T + Galpha16gust44
measurement.type: EC50 (µM)
Answers are plain numbers, in µM.

EC50 measured on OCc1ccccc1O[C@@H]1O[C@H](CO)[C@@H](O)[C@H](O)[C@H]1O = 840
